target: THR beta-LBD (Homo sapiens); construct: THR beta-LBD (the final concentration is 0.5 nM) was added to the 384-well assay plate; purchased Invitrogen PV4686; assay: THR-β Coactivator Peptide Recruitment Assay (LanthaScreen TR-FRET); assay type: biochemical; conditions: TR-FRET coactivator recruitment, THR beta-LBD 0.5 nM
Sequence (P10828 217-461 limits assumed): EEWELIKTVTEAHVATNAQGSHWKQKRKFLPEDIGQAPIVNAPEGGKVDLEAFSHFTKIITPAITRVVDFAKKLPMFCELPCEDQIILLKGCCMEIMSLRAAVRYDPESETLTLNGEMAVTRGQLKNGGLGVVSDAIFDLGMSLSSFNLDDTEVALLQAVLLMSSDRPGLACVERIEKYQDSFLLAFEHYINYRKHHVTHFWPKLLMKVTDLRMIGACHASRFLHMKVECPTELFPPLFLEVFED

molecule	THRβ Emax
O=C(CNS(=O)(=O)c1cc(Oc2c(Cl)cc(-n3nc(C(F)F)c(=O)[nH]c3=O)cc2Cl)ncc1O)NC1CCC1 [Compound 119]	C (<75)
CN(C)C(=O)N1CC(NS(=O)(=O)c2cc(Oc3c(Cl)cc(-n4nc(C(F)F)c(=O)[nH]c4=O)cc3Cl)ccc2O)C1 [Compound 53]	B (75~90)
O=c1[nH]c(=O)n(-c2cc(Cl)c(Oc3ccc(O)c(S(=O)(=O)NC[C@H]4C[C@H](O)C4)c3)c(Cl)c2)nc1C(F)F [Compound 43]	A (90~110)
O=c1[nH]c(=O)n(-c2cc(Cl)c(Oc3ccc(O)c([S@TB3](=O)(=O)N4CCOCC4)c3)c(Cl)c2)nc1C(F)F [Compound 15]	B (75~90)
O=C(N[C@H]1C[C@H](NS(=O)(=O)c2cc(Oc3c(Cl)cc(-n4nc(C(F)F)c(=O)[nH]c4=O)cc3Cl)ccc2O)C1)C1CC1 [Compound 78]	C (<75)
CS(=O)(=O)N1CC[C@@H](NS(=O)(=O)c2cc(Oc3c(Cl)cc(-n4nc(C(F)F)c(=O)[nH]c4=O)cc3Cl)ccc2O)C1 [Compound 51]	C (<75)
CS(=O)(=O)c1cc(Oc2c(Cl)cc(-n3nc(C#N)c(=O)[nH]c3=O)cc2Cl)ncc1O [Compound 147]	A (90~110)
O=c1[nH]c(=O)n(-c2cc(Cl)c(Oc3ccc(O)c(S(=O)(=O)NC4CS(=O)(=O)C4)c3)c(Cl)c2)nc1C(F)F [Compound 83]	A (90~110)
O=C(NC1CC1)C1(NS(=O)(=O)c2cc(Oc3c(Cl)cc(-n4nc(C(F)F)c(=O)[nH]c4=O)cc3Cl)ncc2O)CCC1 [Compound 121]	C (<75)
O=C(NC1CC1)C1(NS(=O)(=O)c2cc(Oc3c(Cl)cc(-n4nc(C(F)(F)F)c(=O)[nH]c4=O)cc3Cl)ccc2O)CC1 [Compound 93]	B (75~90)
N#Cc1nn(-c2cc(Cl)c(Oc3cc(S(=O)(=O)NC4CCC4)c(O)cn3)c(Cl)c2)c(=O)[nH]c1=O [Compound 150]	A (90~110)
CS(=O)(=O)N[C@@H]1CCN(S(=O)(=O)c2cc(Oc3c(Cl)cc(-n4nc(C(F)F)c(=O)[nH]c4=O)cc3Cl)ccc2O)C1 [Compound 47]	C (<75)
O=C(CNS(=O)(=O)c1cc(Oc2c(Cl)cc(-n3nc(C(F)F)c(=O)[nH]c3=O)cc2Cl)ccc1O)NC1CCC1 [Compound 62]	B (75~90)
NC(=O)C1(NS(=O)(=O)c2cc(Oc3c(Cl)cc(-n4nc(C(F)F)c(=O)[nH]c4=O)cc3Cl)ccc2O)CC1 [Compound 24]	A (90~110)
CN([C@H]1C[C@H](O)C1)S(=O)(=O)c1cc(Oc2c(Cl)cc(-n3nc(C(F)F)c(=O)[nH]c3=O)cc2Cl)ccc1O [Compound 99]	B (75~90)
O=c1[nH]c(=O)n(-c2cc(Cl)c(Oc3cc(S(=O)(=O)C4CCC4)c(O)cn3)c(Cl)c2)nc1C(F)F [Compound 153]	A (90~110)
COCCNS(=O)(=O)c1cc(Oc2c(Cl)cc(-n3nc(C(F)F)c(=O)[nH]c3=O)cc2Cl)ccc1O [Compound 65]	B (75~90)
CS(=O)(=O)Cc1cc(Oc2c(Cl)cc(-n3nc(C(F)F)c(=O)[nH]c3=O)cc2Cl)ncc1O [Compound 154]	B (75~90)
O=c1[nH]c(=O)n(-c2cc(Cl)c(Oc3ccc(O)c(S(=O)(=O)N[C@@H]4CC[C@H](O)C4)c3)c(Cl)c2)nc1C(F)F [Compound 66]	C (<75)
O=c1[nH]c(=O)n(-c2cc(Cl)c(Oc3ccc(O)c(S(=O)(=O)N4CCC(F)(F)CC4)c3)c(Cl)c2)nc1C(F)F [Compound 27]	B (75~90)
CS(=O)(=O)N1CC[C@H](NS(=O)(=O)c2cc(Oc3c(Cl)cc(-n4nc(C(F)F)c(=O)[nH]c4=O)cc3Cl)ccc2O)C1 [Compound 50]	C (<75)
O=c1[nH]c(=O)n(-c2cc(Cl)c(Oc3cc(S(=O)(=O)N4CC[C@H](O)C4)c(O)cn3)c(Cl)c2)nc1C(F)F [Compound 108]	B (75~90)
O=C(CNS(=O)(=O)c1cc(Oc2c(Cl)cc(-n3nc(C(F)F)c(=O)[nH]c3=O)cc2Cl)ccc1O)N1CCC1 [Compound 63]	B (75~90)
O=C(NC1CC1)C1(NS(=O)(=O)c2cc(Oc3c(Cl)cc(-n4nc(C(F)F)c(=O)[nH]c4=O)cc3Cl)ccc2O)CC1 [Compound 71]	A (90~110)
Cc1cc(-n2nc(C(F)F)c(=O)[nH]c2=O)cc(Cl)c1Oc1cc(S(=O)(=O)N[C@H]2C[C@H](O)C2)c(O)cn1 [Compound 167]	A (90~110)
O=c1[nH]c(=O)n(-c2cc(Cl)c(Oc3cc(S(=O)(=O)NC[C@H]4C[C@@H](O)C4)c(O)cn3)c(Cl)c2)nc1C(F)F [Compound 134]	B (75~90)
